B1: VH:VL chains; a variant is named by its letters at X, in order (parent)
chain 1: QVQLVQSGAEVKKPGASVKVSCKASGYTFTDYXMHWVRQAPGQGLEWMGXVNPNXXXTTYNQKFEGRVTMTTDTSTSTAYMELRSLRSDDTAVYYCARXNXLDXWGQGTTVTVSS
chain 2: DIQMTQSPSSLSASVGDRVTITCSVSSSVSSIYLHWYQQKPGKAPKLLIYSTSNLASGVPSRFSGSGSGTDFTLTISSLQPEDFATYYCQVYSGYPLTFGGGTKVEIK

variants of: B1; assay: yeast display scFab, FACS + sequencing
Property label: non-specific binding call

* VEGGGDVA | no binding
* YEGGTDVV | no binding
* FARKGSGA | binds
* DETGGDWF | no binding
* DTKAASWA | no binding
* VREGAAAV | no binding
* YRERGAAV | binds
* DKEGGAAV | no binding
* FKRGDAGD | binds
* YRRGDAGF | binds
* VTGTSDLY | no binding
* SETKGDVY | no binding
* YRREGSGV | binds
* VRTEDDWY | no binding
* YRRRGFWY | binds
* SKAGGSAD | binds
* SAAGGASD chain 1 L45S | no binding
* YKTGGSGA | binds
* YRGRGSAY | binds
* YKRGSSGF | binds
* SKTKSSAS | no binding
* YKRGSSVV | binds
